Target: human orexin-2 receptor (OX2R) (Homo sapiens)
Sequence (O43614 1-444): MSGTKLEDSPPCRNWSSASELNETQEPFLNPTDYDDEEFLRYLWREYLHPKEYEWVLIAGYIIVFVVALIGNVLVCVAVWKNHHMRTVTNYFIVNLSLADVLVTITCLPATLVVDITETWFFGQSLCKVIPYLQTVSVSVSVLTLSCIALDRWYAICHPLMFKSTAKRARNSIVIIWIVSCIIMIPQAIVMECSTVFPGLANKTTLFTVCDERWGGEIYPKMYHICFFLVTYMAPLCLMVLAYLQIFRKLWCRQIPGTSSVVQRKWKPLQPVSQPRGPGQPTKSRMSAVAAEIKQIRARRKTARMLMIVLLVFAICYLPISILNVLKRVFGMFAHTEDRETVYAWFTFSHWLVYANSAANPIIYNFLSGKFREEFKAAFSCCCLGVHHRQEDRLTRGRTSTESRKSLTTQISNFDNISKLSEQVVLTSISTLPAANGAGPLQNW
Assay: In vitro orexin antagonism assay: intracellular calcium measurement (FLIPR), orexin-A 3 nM as agonist
Conditions: first value of IC50/Kb cell
READOUT: IC50 (nM)

# example entries with known answers
INSERT INTO measurements (smi, system_under_test, readout_unit, reading) VALUES
  ('O=C(c1c(-c2ccccc2)nc2cc(C(F)(F)F)ccn12)N1CCC[C@H]1Cn1ccc(-c2ccc(F)cc2)n1', 'human orexin-2 receptor (OX2R) (Homo sapiens)', 'nM', 33),
  ('O=C(c1c(-c2ccccn2)nn2ccccc12)N1CCC[C@H]1Cn1ccc(-c2ccc(F)cn2)n1', 'human orexin-2 receptor (OX2R) (Homo sapiens)', 'nM', 24),
  ('O=C(c1c(-c2ccccc2)nn2cccnc12)N1CCC[C@H]1Cn1ccc(-c2ccccc2)n1', 'human orexin-2 receptor (OX2R) (Homo sapiens)', 'nM', 83),
  ('[2H]C1([2H])CC[C@@]([2H])(Cn2ccc(-c3ccc(F)cc3)n2)N1C(=O)c1c(-c2ncccn2)nn2ccccc12', 'human orexin-2 receptor (OX2R) (Homo sapiens)', 'nM', 15),
  ('O=C(c1c(-c2ccc(F)cc2)nn2ccccc12)N1CCC[C@H]1Cn1ccc(-c2ccccc2)n1', 'human orexin-2 receptor (OX2R) (Homo sapiens)', 'nM', 220);

1: O=C(c1c(-c2ccccc2F)nn2ccccc12)N1CCC[C@H]1Cn1cc(-c2ccc(F)cn2)cn1
2: O=C(c1nn2c(c1-c1ccccc1)OCCC2)N1CCC[C@H]1Cn1ccc(-c2ccccn2)n1
Higher IC50 between 1 and 2 ? Answer = label.
2
(2: 660 nM, 1: 46 nM)

---

Molecular target: Orexin type 1 (OX1R) receptor (Homo sapiens)
Sequence (O43613 1-425): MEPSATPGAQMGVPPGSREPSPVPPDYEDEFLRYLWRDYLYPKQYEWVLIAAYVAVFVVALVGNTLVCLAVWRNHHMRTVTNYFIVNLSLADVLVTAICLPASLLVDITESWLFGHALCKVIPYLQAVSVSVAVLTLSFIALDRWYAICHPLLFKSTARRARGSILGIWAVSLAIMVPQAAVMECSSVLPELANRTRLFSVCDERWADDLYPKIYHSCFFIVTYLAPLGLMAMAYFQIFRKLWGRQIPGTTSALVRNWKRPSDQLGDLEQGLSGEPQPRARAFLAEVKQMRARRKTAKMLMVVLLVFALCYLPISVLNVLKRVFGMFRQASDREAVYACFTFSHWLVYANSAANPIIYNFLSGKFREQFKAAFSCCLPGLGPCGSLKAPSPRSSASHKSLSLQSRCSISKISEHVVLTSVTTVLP
Assay: In vitro orexin antagonism assay: intracellular calcium measurement (FLIPR), orexin-A 3 nM as agonist
Settings: first value of IC50/Kb cell
pIC50: −log10 of the molar value.
READOUT: pIC50

INSERT INTO results (compound, readout, reading) VALUES
  ('O=C(c1c(-c2ccccc2F)nn2ccccc12)N1CCC[C@H]1Cn1cc(-c2ccccn2)cn1', 'pIC50', 7.33),
  ('O=C(c1nn2cccnc2c1-c1ccccn1)N1CCC[C@H]1Cc1nc(-c2ccccn2)no1', 'pIC50', 7.54),
  ('O=C(c1c(-c2ncccn2)nn2ccccc12)N1CCC[C@H]1Cc1nc(-c2ccccn2)no1', 'pIC50', 6.39);

1: O=C(c1c(-c2ccc(F)cc2)nn2ccccc12)N1CCC[C@H]1COc1ccc(C(F)(F)F)cn1
2: O=C(c1nn2cccnc2c1-c1ccccn1)N1CCC[C@H]1COc1ccc(C(F)(F)F)cn1
3: O=C(c1c(-c2ncccn2)nn2ccccc12)N1CCC[C@H]1COc1ccc(C(F)(F)F)cn1
4: O=C(c1nn2ccccc2c1-c1ccccc1)N1CC[C@H]1Cn1ccc(-c2ccc(F)cn2)n1
Arrange by pIC50, high to low. Put the labels in the order asked and list them.
2, 1, 3, 4

---

Target: Orexin type 1 (OX1R) receptor (Homo sapiens, UniProt O43613)
Construct: expressed in transfected cells; host or cells: CHO cells (G418 selection)
Assay: In vitro orexin antagonism assay: intracellular calcium measurement (FLIPR), orexin-A 3 nM as agonist
Type: cell-based
Conditions: read-out: OX1R, % Inh. @ 1 uM
READOUT: inhibition at 1 µM (%)

Examples with answers:
INSERT INTO measurements (smi, readout, reading) VALUES
  ('O=C(c1c(-c2ccccc2F)nn2c1COCC2)N1CCC[C@H]1Cn1cc(-c2ccccc2)cn1', 'inhibition at 1 µM', 64),
  ('O=C(c1nn2ccccc2c1-c1ccccc1)N1CCC[C@H]1Cn1ccc(-c2ccc(F)cn2)n1', 'inhibition at 1 µM', 100);

a: O=C(c1c(-c2ccccc2)nn2c1COCC2)N1CCCC[C@H]1CNc1ccc(C(F)(F)F)cn1
b: O=C(c1c(-c2ccccc2)nc2ccc(F)cn12)N1CCC[C@H]1Cn1cc(-c2ccccn2)cn1
Between a and b , which one has the lower reported inhibition at 1 µM value? Write the label of whichever entry you select.
b
(b: 40%, a: 99%)

---

Target: human orexin-2 receptor (OX2R) (Homo sapiens)
Construct: expressed in transfected cells; host or cells: CHO cells (G418 selection)
Sequence (O43614 1-444): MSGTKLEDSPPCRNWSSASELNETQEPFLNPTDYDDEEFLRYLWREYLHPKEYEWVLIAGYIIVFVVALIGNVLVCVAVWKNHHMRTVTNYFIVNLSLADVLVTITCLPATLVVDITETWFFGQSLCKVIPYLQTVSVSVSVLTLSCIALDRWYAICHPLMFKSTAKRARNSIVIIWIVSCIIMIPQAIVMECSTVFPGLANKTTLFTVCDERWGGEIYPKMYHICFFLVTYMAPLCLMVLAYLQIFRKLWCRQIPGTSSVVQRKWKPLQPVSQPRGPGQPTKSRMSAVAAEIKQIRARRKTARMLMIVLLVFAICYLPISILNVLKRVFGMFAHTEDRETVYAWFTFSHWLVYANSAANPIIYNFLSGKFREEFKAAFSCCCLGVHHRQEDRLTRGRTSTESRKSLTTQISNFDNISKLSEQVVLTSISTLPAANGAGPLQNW
Test: In vitro orexin antagonism assay: intracellular calcium measurement (FLIPR), orexin-A 3 nM as agonist
Type: cell-based
Settings: read-out: OX2R, % Inh. @ 1 uM
READOUT: inhibition at 1 µM (%)

INSERT INTO results (smi, system_under_test, readout, reading) VALUES
  ('O=C(c1c(-c2ccccc2)nc2ccc(F)cn12)N1CCC[C@H]1Cn1cc(-c2ccccn2)cn1', 'human orexin-2 receptor (OX2R) (Homo sapiens)', 'inhibition at 1 µM', 45),
  ('O=C(c1nc2n(c1-c1ccccn1)CCOC2)N1CCC[C@H]1Cn1ccc(-c2ccc(F)cn2)n1', 'human orexin-2 receptor (OX2R) (Homo sapiens)', 'inhibition at 1 µM', 24);

a: C[C@@]1(COc2ccc(C(F)(F)F)cn2)CCCN1C(=O)c1c(-c2ncccn2)nn2ccccc12
b: O=C(c1nc2ccccn2c1-c1ccccc1)N1CCC[C@H]1COc1ccc(C(F)(F)F)cn1
c: C[C@@]1(COc2ccc(C(F)(F)F)cn2)CCCN1C(=O)c1nc2ccccn2c1-c1ccccc1
d: O=C(c1c(-c2ccccc2)nn2ccccc12)N1CCOC[C@H]1COc1ccc(C(F)(F)F)cn1
e: O=C(c1nn2cccnc2c1-c1ccccn1)N1CCC[C@H]1Cn1cc(-c2ccc(F)cn2)cn1
Sort low-to-high on inhibition at 1 µM, please. Labels, requested order.
d, c, a, b, e

---

Target: Orexin type 1 (OX1R) receptor (Homo sapiens, UniProt O43613)
Test: In vitro orexin antagonism assay: intracellular calcium measurement (FLIPR), orexin-A 3 nM as agonist
Conditions: first value of IC50/Kb cell
pIC50: −log10 of the molar value.
READOUT: pIC50

Answered examples (5):
INSERT INTO measurements (molecule, reading) VALUES
  ('O=C(c1nn2c(c1-c1ccccn1)COCC2)N1CCC[C@H]1Cn1ccc(-c2ccc(F)cn2)n1 [Example 196]', 7.62),
  ('C[C@@]1(COc2ccc(C(F)(F)F)cn2)CCCN1C(=O)c1nn2ccccc2c1-c1ccccc1', 6.68),
  ('C[C@@H]1CCCN(C(=O)c2c(-c3ccc(F)cc3)nn3ccccc23)[C@@H]1CNc1ccc(C(F)(F)F)cn1', 7.54),
  ('O=C(c1c(-c2ccccc2F)nn2c1COCC2)N1CCC[C@H]1Cn1cc(-c2ccccc2)cn1', 6.21),
  ('C[C@@]1(COc2ccc(C(F)(F)F)cn2)CCCN1C(=O)c1c(-c2ccccc2)nn2cccnc12', 6.92);

a: O=C(c1c(-c2ccccc2F)nc2ccccn12)N1CCC[C@H]1COc1ccc(C(F)(F)F)cn1
b: O=C(c1nc2ccccn2c1-c1ccccc1)N1CCC[C@H]1COc1ccc(C(F)(F)F)cn1
c: O=C(c1c(-c2ccccc2)nc2cc(C(F)(F)F)ccn12)N1CCC[C@H]1Cn1ccc(-c2ccccn2)n1
d: O=C(c1c(-c2ccccc2F)nn2ccccc12)N1[C@H](Cn2ccc(-c3ccc(F)cc3)n2)C[C@@H]2C[C@@H]21
Rank the items in ascending order with respect to pIC50. # answer = labels listed in requested order
c, d, a, b
(c: 6.80, d: 7.02, a: 7.28, b: 8.30)

a: O=C(c1nn2c(c1-c1ccccc1)COCC2)N1CCC[C@H]1Cn1ccc(-c2ccccn2)n1
b: O=C(c1nn2ccccc2c1-c1ccccn1)N1CCC[C@H]1Cn1ccc(-c2ccccn2)n1
Lab log: flag the item ( a or b ) with the smaller pIC50 figure. State your choice using its label.
a
(a: 7.92, b: 8.30)

I: O=C(c1c(-c2ccccc2)nn2c1COCC2)N1CCCC[C@H]1COc1ccc(C(F)(F)F)cn1
II: O=C(c1c(-c2ccccn2)nn2ccccc12)N1CCC[C@H]1Cn1ccc(-c2ccc(F)cn2)n1
Higher pIC50: I or II ? State the label of the item chosen.
I

1: C[C@@]1(COc2cnc(C(F)(F)F)cn2)CCCN1C(=O)c1nn2cccnc2c1-c1ccccc1
2: O=C(c1c(-c2ccccc2)nc2cc(C(F)(F)F)ccn12)N1CCC[C@H]1Cn1ccc(-c2ccc(F)cn2)n1
I would appreciate it if you could say which entry, 1 or 2 , has the lower pIC50 value. Give the label of your selection.
1
